B1: KRT18 (parent)
chain: PQVRDWSHYFKIIEDLRAQIFANT

- Variants of: B1
- assay.comment: protein stability index of a GFP-peptide fusion (GPS, HEK-293T) (PSI 1-6); higher = more stable;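 note: lentivirally expressed fusions sorted by FACS into six bins by GFP to DsRed ratio, PSI derived from sequencing read proportions per bin multiplied by bin number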
- assay.conditions: c terminus: a fixed tail appended
Output T for protein stability index not less than 2; output F otherwise.

[ask] For this variant, is measured protein stability index 2 or higher? A22Y
[reply] F

[ask] For this variant, is measured protein stability index 2 or higher? R4F
[reply] F

[ask] For this variant, is measured protein stability index 2 or higher? D5M
[reply] T

[ask] For this variant, is measured protein stability index 2 or higher? Y9V
[reply] T

[ask] For this variant, is measured protein stability index 2 or higher? H8L
[reply] T

[ask] For this variant, is measured protein stability index 2 or higher? A18H
[reply] F

[ask] For this variant, is measured protein stability index 2 or higher? R17N
[reply] T

[ask] For this variant, is measured protein stability index 2 or higher? N23Q
[reply] F

[ask] For this variant, is measured protein stability index 2 or higher? W6D
[reply] T

[ask] For this variant, is measured protein stability index 2 or higher? R4N
[reply] T
